Every entry's value here was drawn from ChEMBL document CHEMBL4828770.

molecular target: Decaprenylphosphoryl-beta-D-ribose oxidase (Mycobacterium tuberculosis (strain ATCC 25618 / H37Rv), UniProt P9WJF1); assay: Inhibition of Mycobacterium tuberculosis recombinant DprE1 expressed in Escherichia coli assessed as formation of resorufin using FPR as substrate by Amplex Red […] coupled assay
Sequence (P9WJF1 whole entry): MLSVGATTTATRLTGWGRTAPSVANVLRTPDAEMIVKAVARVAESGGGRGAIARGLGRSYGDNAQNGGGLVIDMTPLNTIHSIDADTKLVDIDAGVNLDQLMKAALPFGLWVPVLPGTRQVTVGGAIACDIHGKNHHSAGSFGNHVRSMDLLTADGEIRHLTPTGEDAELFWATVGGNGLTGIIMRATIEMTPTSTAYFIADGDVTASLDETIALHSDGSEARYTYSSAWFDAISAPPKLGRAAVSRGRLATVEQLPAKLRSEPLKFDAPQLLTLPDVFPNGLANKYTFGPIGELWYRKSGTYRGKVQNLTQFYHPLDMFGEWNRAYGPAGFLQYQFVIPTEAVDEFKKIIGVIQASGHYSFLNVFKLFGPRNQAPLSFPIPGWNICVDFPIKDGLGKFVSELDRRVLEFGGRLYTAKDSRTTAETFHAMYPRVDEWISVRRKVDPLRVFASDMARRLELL
Recorded pIC50 values for a group of compounds are listed next.
Note: pIC50 values are expressed as the negative base-10 logarithm of concentration in M.

> print(dat)
                            chemical.string  parameter  result
1  CN(Cc1nnc(-c2ccccc2)o1)c1nc(=O)c2cc(S(C)(=O)=O)cc([N+](=O)[O-])c2s1      pIC50    5.68
2  CN(Cc1coc(-c2ccccc2)n1)c1nc(=O)c2cc(S(C)(=O)=O)cc([N+](=O)[O-])c2s1      pIC50    6.03

Please look at this compound and report its pIC50: CN(Cc1cn(-c2ccccc2)nn1)c1nc(=O)c2cc(S(C)(=O)=O)cc([N+](=O)[O-])c2s1
6.11

* * *

Recorded CLint scaled values for a group of compounds are listed next.
assay: Metabolic stability in human liver microsomes assessed as clearance in presence of NADPH by LC/MS analysis; format: ADME, Microsome; settings: read-out: CLH
Respond numerically; units are mL/min/kg and should not be typed.

> print(dat)
                            chemical.string     parameter  result
1  CS(=O)(=O)c1cc([N+](=O)[O-])c2sc(N3CCN(CC4CCCCC4)CC3)nc(=O)c2c1  CLint scaled    89.8

Please look at this compound and report its CLint scaled: CN(Cc1nnc(-c2ccccc2)o1)c1nc(=O)c2cc(S(C)(=O)=O)cc([N+](=O)[O-])c2s1
37.8

Please look at this compound and report its CLint scaled: CN(Cc1csc(-c2ccccc2)n1)c1nc(=O)c2cc(S(C)(=O)=O)cc([N+](=O)[O-])c2s1
107

Please look at this compound and report its CLint scaled: CN(Cc1coc(-c2ccccc2)n1)c1nc(=O)c2cc(S(C)(=O)=O)cc([N+](=O)[O-])c2s1
82.7

Please look at this compound and report its CLint scaled: CN(Cc1nnc(-c2ccccc2)s1)c1nc(=O)c2cc(S(C)(=O)=O)cc([N+](=O)[O-])c2s1
128

Please look at this compound and report its CLint scaled: O=c1nc(N2CCN(CC3CCCCC3)CC2)sc2c([N+](=O)[O-])cc(C(F)(F)F)cc12
22.8

Please look at this compound and report its CLint scaled: CN(Cc1cn(-c2ccccc2)nn1)c1nc(=O)c2cc(S(C)(=O)=O)cc([N+](=O)[O-])c2s1
32.4

* * *

Recorded half-life values for a group of compounds are listed next.
test: Metabolic stability in human liver microsomes assessed as half life in presence of NADPH by LC/MS analysis; format: ADME, Microsome
Respond numerically; units are min and should not be typed.

Below: 2 compounds and their reported half-life.
> print(dat)
                                   compound  result
1  CS(=O)(=O)c1cc([N+](=O)[O-])c2sc(N3CCN(CC4CCCCC4)CC3)nc(=O)c2c1    25.8
2  CN(Cc1nnc(-c2ccccc2)o1)c1nc(=O)c2cc(S(C)(=O)=O)cc([N+](=O)[O-])c2s1    45.9

Please look at this compound and report its half-life: CN(Cc1nnc(-c2ccccc2)s1)c1nc(=O)c2cc(S(C)(=O)=O)cc([N+](=O)[O-])c2s1
13.2

Please look at this compound and report its half-life: CN(Cc1cn(-c2ccccc2)nn1)c1nc(=O)c2cc(S(C)(=O)=O)cc([N+](=O)[O-])c2s1
53.7

Please look at this compound and report its half-life: CN(Cc1csc(-c2ccccc2)n1)c1nc(=O)c2cc(S(C)(=O)=O)cc([N+](=O)[O-])c2s1
16.2

Please look at this compound and report its half-life: CN(Cc1coc(-c2ccccc2)n1)c1nc(=O)c2cc(S(C)(=O)=O)cc([N+](=O)[O-])c2s1
21

Please look at this compound and report its half-life: O=c1nc(N2CCN(CC3CCCCC3)CC2)sc2c([N+](=O)[O-])cc(C(F)(F)F)cc12 [MACOZINONE]
76.3
